Values compiled from patent US20070077597A1.

SYSTEM TESTED: T1, light-activated bovine rhodopsin (metarhodopsin II) in rod outer segment membranes (bovine, UniProt P02699 1-348, retinylidene chromophore on Lys-296 (all-trans after light))
T1 construct: whole, on cells; also called MII
T1 sequence (P02699 whole entry): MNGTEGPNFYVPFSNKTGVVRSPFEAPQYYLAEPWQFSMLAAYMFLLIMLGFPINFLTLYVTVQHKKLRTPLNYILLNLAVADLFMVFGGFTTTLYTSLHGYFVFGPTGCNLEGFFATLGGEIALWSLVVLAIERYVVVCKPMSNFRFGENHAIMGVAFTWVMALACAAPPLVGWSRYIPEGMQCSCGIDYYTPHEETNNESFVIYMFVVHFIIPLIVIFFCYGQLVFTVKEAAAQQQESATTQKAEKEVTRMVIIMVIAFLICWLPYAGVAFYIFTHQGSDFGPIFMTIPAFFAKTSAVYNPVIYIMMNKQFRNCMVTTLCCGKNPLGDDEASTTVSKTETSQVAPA
EXPERIMENT DESCRIPTION: ELISA of clone lysate on rhodopsin
Recorded ELISA (OD450 with receptor minus OD450 without receptor) for the following binders
ASSAY READOUT: ELISA (OD450 with receptor minus OD450 without receptor) (OD450)

{"BINDER": "LacI fusion clone L33 (Gt library) (other, E. coli, not shown: small tags and cut ends) MKPVTLYDVAEYAGVSYQTVSRVVNQASHVSAKTREKVEAAMAELNYIPNRVAQQLAGKQSLLIGVATSSLALHAPSQIVAAIKSRADQLGASVVVSMVERSGVEACKAAVHNLLAQRVSGLIINYPLDDQDAIAVEAACTNVPALFLDVSDQTPINSIIFSHEDGTRLGVEHLVALGHQQIALLAGPLSSVSARLRLAGWHKYLTRNQIQPIAEREGDWSAMSGFQQTMQMLNEGIVPTAMLVANDQMALGAMRAITESGLRVGADISVVGYDDTEDSSCYIPPLTTIKQDFRLLGQTSVDRLLQLSQGQAVKGNQLLPVSLVKRKTTLAPNTQTASPRALADSLMQLARQVSRLESGQIVEILEDCGLF", "MEASURE UNIT": "OD450", "TEST RESULT": 1.01}
{"BINDER": "LacI fusion clone L15 (Gt library) (other, E. coli, not shown: small tags and cut ends) MKPVTLYDVAEYAGVSYQTVSRVVNQASHVSAKTREKVEAAMAELNYIPNRVAQQLAGKQSLLIGVATSSLALHAPSQIVAAIKSRADQLGASVVVSMVERSGVEACKAAVHNLLAQRVSGLIINYPLDDQDAIAVEAACTNVPALFLDVSDQTPINSIIFSHEDGTRLGVEHLVALGHQQIALLAGPLSSVSARLRLAGWHKYLTRNQIQPIAEREGDWSAMSGFQQTMQMLNEGIVPTAMLVANDQMALGAMRAITESGLRVGADISVVGYDDTEDSSCYIPPLTTIKQDFRLLGQTSVDRLLQLSQGQAVKGNQLLPVSLVKRKTTLAPNTQTASPRALADSLMQLARQVSRLESGQVRDILKDCGLF", "MEASURE UNIT": "OD450", "TEST RESULT": 0.621}
